System: Aspergillus flavus
Assay: Antifungal activity against Aspergillus flavus MTCC 3306 assessed as growth inhibition at 1000 ug/mL after 72 hrs by agar well plate method
Type: functional
Conditions: MTCC 3306, 72 h, read-out: DIZ
MEASURED_PARAMETER: zone of inhibition at 1000 µg/mL (mm)
One number for each entry, in mm.

MOLECULE: COc1ccc(C2CC(=NOC(=O)c3ccccc3)CC(c3ccc(OC)cc3)N2C)cc1 (stereo not given)
OBS_VALUE: 1

MOLECULE: COc1ccc(C2CC(=NOC(=O)c3cc([N+](=O)[O-])cc([N+](=O)[O-])c3)CC(c3ccc(OC)cc3)N2C)cc1 (stereo not given)
OBS_VALUE: 4

Could I get zone of inhibition at 1000 µg/mL for every one of these entries?
1. COc1ccc(C2CC(=NOC(=O)c3ccc(C)cc3)CC(c3ccc(OC)cc3)N2C)cc1 (stereo not given)
2. COc1ccc(C2CC(=NOC(=O)c3cc(OC)c(OC)c(OC)c3)CC(c3ccc(OC)cc3)N2C)cc1 (stereo not given)
3. COc1ccc(C2CC(=NOC(=O)c3ccccc3O)CC(c3ccc(OC)cc3)N2C)cc1 (stereo not given)
4. COc1ccc(C2CC(=NOC(=O)c3cc(O)cc(O)c3)CC(c3ccc(OC)cc3)N2C)cc1 (stereo not given)
5. COc1ccc(C2CC(=NO)CC(c3ccc(OC)cc3)N2C)cc1 (stereo not given)
6. COc1ccc(C2CC(=NOC(=O)c3cc(O)c(O)c(O)c3)CC(c3ccc(OC)cc3)N2C)cc1 (stereo not given)

2
2
3
1
1
3

Could I get zone of inhibition at 1000 µg/mL for every one of these entries?
1. COc1ccc(C2CC(=NOC(=O)c3ccc(OC)cc3OC)CC(c3ccc(OC)cc3)N2C)cc1 (stereo not given)
2. COc1ccc(C2CC(=NOC(=O)c3ccc(O)cc3)CC(c3ccc(OC)cc3)N2C)cc1 (stereo not given)

1. 4
2. 0
